Values were extracted from paper PMC8667930.

Tested on: A549 cells (non-small cell lung carcinoma)
ASSAY PROTOCOL: MTT cytotoxicity assay, A549
Assay type: cell-based
EXPERIMENTAL PARAMETERS: 48 h treatment, mean ± SD (n = 3), NA = no activity
ASSAY READOUT: IC50, A549

compound_structure=COc1cccc2c(=O)n(-c3ccc(S(N)(=O)=O)cc3)c(SCC(=O)Nc3ccccc3)nc12 result="no activity"
compound_structure=CCc1ccccc1NC(=O)CSc1nc2c(OC)cccc2c(=O)n1-c1ccc(S(N)(=O)=O)cc1 result="no activity"
compound_structure=COc1cccc2c(=O)n(-c3ccc(S(N)(=O)=O)cc3)c(SCC(=O)Nc3ccc(C)cc3)nc12 result="no activity"
compound_structure=COc1cccc2c(=O)n(-c3ccc(S(N)(=O)=O)cc3)c(SCC(=O)Nc3c(C)cccc3[N+](=O)[O-])nc12 result="no activity"
compound_structure=COc1ccc(NC(=O)CSc2nc3c(OC)cccc3c(=O)n2-c2ccc(S(N)(=O)=O)cc2)cc1 result="no activity"

----------
Entries and their IC50
Tested on: LoVo cells (colon cancer)
ASSAY PROTOCOL: MTT cytotoxicity assay, LoVo
Type: cell-based
EXPERIMENTAL PARAMETERS: Homo sapiens, LoVo, 48 h treatment, mean ± SD (n = 3), NA = no activity
ASSAY READOUT: IC50

molecule="CCOc1ccc(NC(=O)CSc2nc3c(OC)cccc3c(=O)n2-c2ccc(S(N)(=O)=O)cc2)cc1 [Compound 13]" result="54.4 µM"
molecule="COc1cccc2c(=O)n(-c3ccc(S(N)(=O)=O)cc3)c(SCC(=O)Nc3ccc([N+](=O)[O-])cc3C)nc12 [Compound 16]" result="41 µM"
molecule="COc1cccc2c(=O)n(-c3ccc(S(N)(=O)=O)cc3)c(SCC(=O)Nc3ccccc3C)nc12 [Compound 6]" result="22.6 µM"
molecule="COc1cc(NC(=O)CSc2nc3c(OC)cccc3c(=O)n2-c2ccc(S(N)(=O)=O)cc2)cc(OC)c1OC [Compound 15]" result="47.5 µM"
molecule="CCc1cccc(NC(=O)CSc2nc3c(OC)cccc3c(=O)n2-c2ccc(S(N)(=O)=O)cc2)c1 [Compound 10]" result="22.3 µM"
molecule="COc1cccc2c(=O)n(-c3ccc(S(N)(=O)=O)cc3)c(SCC(=O)Nc3cccc(C)c3)nc12 [Compound 7]" result="30.1 µM"
molecule="O=c1[nH]cc(F)c(=O)[nH]1 [5-Flurouracil, 5-Fluorouracil, reference compound]" result="90.7 µM"
molecule="COc1cc(NC(=O)CSc2nc3c(OC)cccc3c(=O)n2-c2ccc(S(N)(=O)=O)cc2)cc(OC)c1 [Compound 14]" result="38.3 µM"

----------
ASSAY READOUT: melting point

compound_structure=COc1cccc2c(=O)n(-c3ccc(S(N)(=O)=O)cc3)c(SCC(=O)Nc3ccc(C)cc3)nc12 assay_readout="melting point" result="> 350 °C"
compound_structure=COc1cccc2c(=O)n(-c3ccc(S(N)(=O)=O)cc3)c(SCC(=O)Nc3c(C)cccc3[N+](=O)[O-])nc12 assay_readout="melting point" result="> 350 °C"
compound_structure=CCc1ccccc1NC(=O)CSc1nc2c(OC)cccc2c(=O)n1-c1ccc(S(N)(=O)=O)cc1 assay_readout="melting point" result="288 to 290 °C"
compound_structure=CCOc1ccc(NC(=O)CSc2nc3c(OC)cccc3c(=O)n2-c2ccc(S(N)(=O)=O)cc2)cc1 assay_readout="melting point" result="300 to 302 °C"
compound_structure=COc1cccc2c(=O)n(-c3ccc(S(N)(=O)=O)cc3)c(SCC(=O)Nc3ccccc3)nc12 assay_readout="melting point" result="> 350 °C"
compound_structure=COc1cccc2c(=O)n(-c3ccc(S(N)(=O)=O)cc3)c(SCC(=O)Nc3cccc(C)c3)nc12 assay_readout="melting point" result="> 350 °C"

----------
# melting point listing for each entry below
ASSAY READOUT: melting point

compound_structure=CCc1cccc(NC(=O)CSc2nc3c(OC)cccc3c(=O)n2-c2ccc(S(N)(=O)=O)cc2)c1 result="292 to 294 °C"
compound_structure=COc1cc(NC(=O)CSc2nc3c(OC)cccc3c(=O)n2-c2ccc(S(N)(=O)=O)cc2)cc(OC)c1OC result="290 to 292 °C"
compound_structure=COc1ccc(NC(=O)CSc2nc3c(OC)cccc3c(=O)n2-c2ccc(S(N)(=O)=O)cc2)cc1 result="296 to 298 °C"
compound_structure=COc1cccc2c(=O)n(-c3ccc(S(N)(=O)=O)cc3)c(SCC(=O)Nc3ccccc3C)nc12 result="> 350 °C"
compound_structure=CCc1ccc(NC(=O)CSc2nc3c(OC)cccc3c(=O)n2-c2ccc(S(N)(=O)=O)cc2)cc1 result="280 to 282 °C"
compound_structure=COc1cc(NC(=O)CSc2nc3c(OC)cccc3c(=O)n2-c2ccc(S(N)(=O)=O)cc2)cc(OC)c1 result="240 to 242 °C"
compound_structure=COc1cccc2c(=O)n(-c3ccc(S(N)(=O)=O)cc3)c(SCC(=O)Nc3ccc([N+](=O)[O-])cc3C)nc12 result="> 350 °C"
